System: SK-MEL-28 melanoma
measurement_description: NCI tumour cell line growth inhibition, 48 h
The label depends only on TGI: YES if it is at least 20 µM, NO if it is smaller.

> print(dat)
                                   molecule  class.label
1  O=C(NNC(=S)Nc1ccc(Cl)cc1)c1cc(-c2ccccc2)nc2ccccc12           NO
2  Cc1nnc2n1N=C(c1cc(F)c(Cl)cc1Cl)/C(=C/c1ccc(Cl)cc1)S2          YES
3  CCN(CC)CCc1c2c(nc3ccccc13)C(=O)c1cccnc1C2=O           NO
4      CN(CCC#N)c1ccc(/C=C2\SC(=S)NC2=O)cc1          YES
5  Cc1ccc(C(=O)Nc2ccc(CP(=O)(O)O)cc2CP(=O)(O)O)cc1NC(=O)c1cccc(N)c1          YES

Here is another molecule to look at.
Is TGI at least 20 µM? Consider C=CCN1C(=O)/C(=C/c2ccccc2)N=C1SC1OC(COC(=O)c2ccccc2)C(OC(=O)c2ccccc2)C1OC(=O)c1ccccc1 (stereo not drawn)
YES
